Hello, the source for this data is patent US8637681B2, in case you need it.

test: Cytotoxicity test (SRB), A549; type: cell-based; settings: human, A549 non-small cell lung cancer cells
Readings of IC50 at 72 h for the listed molecules
PROPERTY_NAME: IC50 at 72 h

INSERT INTO assay_data (molecule, endpoint_result) VALUES
  ('Cc1[nH]c(/C=C2\C(=O)Nc3ccc(F)cc32)c(C)c1NC(=O)/C=C/CN(C)C [Compound 4]', '> 30 µM'),
  ('Cc1[nH]c(/C=C2\C(=O)Nc3ccc(F)cc32)c(C)c1NC(=O)CCCN(C)C [Compound 5]', '> 30 µM'),
  ('CCN(CC)CC(=O)Nc1c(C)[nH]c(/C=C2\C(=O)Nc3ccc([N+](=O)[O-])cc32)c1C [Compound 26]', '> 30 µM'),
  ('CCN(CC)CCC(=O)Nc1c(C)[nH]c(/C=C2\C(=O)Nc3ccc(NS(C)(=O)=O)cc32)c1C [Compound 8]', '> 30 µM'),
  ('Cc1[nH]c(/C=C2\C(=O)Nc3ccc(F)cc32)c(C)c1NC(=O)CN1CCOCC1 [Compound 19]', '> 30 µM'),
  ('CCN(CC)CCC(=O)Nc1c(C)[nH]c(/C=C2\C(=O)Nc3ccc(F)cc32)c1C [Compound 1]', '> 30 µM'),
  ('CCN(CC)CC(=O)Nc1c(C)[nH]c(/C=C2\C(=O)Nc3ccc(NS(C)(=O)=O)cc32)c1C [Compound 25]', '> 30 µM'),
  ('CCN(CC)CC(=O)Nc1c(C)[nH]c(/C=C2\C(=O)Nc3cc(OC)ccc32)c1C [Compound 23]', '> 30 µM');
